Target Desc: UniProt Q9NYK1
Sequence (Q9NYK1 27-1049): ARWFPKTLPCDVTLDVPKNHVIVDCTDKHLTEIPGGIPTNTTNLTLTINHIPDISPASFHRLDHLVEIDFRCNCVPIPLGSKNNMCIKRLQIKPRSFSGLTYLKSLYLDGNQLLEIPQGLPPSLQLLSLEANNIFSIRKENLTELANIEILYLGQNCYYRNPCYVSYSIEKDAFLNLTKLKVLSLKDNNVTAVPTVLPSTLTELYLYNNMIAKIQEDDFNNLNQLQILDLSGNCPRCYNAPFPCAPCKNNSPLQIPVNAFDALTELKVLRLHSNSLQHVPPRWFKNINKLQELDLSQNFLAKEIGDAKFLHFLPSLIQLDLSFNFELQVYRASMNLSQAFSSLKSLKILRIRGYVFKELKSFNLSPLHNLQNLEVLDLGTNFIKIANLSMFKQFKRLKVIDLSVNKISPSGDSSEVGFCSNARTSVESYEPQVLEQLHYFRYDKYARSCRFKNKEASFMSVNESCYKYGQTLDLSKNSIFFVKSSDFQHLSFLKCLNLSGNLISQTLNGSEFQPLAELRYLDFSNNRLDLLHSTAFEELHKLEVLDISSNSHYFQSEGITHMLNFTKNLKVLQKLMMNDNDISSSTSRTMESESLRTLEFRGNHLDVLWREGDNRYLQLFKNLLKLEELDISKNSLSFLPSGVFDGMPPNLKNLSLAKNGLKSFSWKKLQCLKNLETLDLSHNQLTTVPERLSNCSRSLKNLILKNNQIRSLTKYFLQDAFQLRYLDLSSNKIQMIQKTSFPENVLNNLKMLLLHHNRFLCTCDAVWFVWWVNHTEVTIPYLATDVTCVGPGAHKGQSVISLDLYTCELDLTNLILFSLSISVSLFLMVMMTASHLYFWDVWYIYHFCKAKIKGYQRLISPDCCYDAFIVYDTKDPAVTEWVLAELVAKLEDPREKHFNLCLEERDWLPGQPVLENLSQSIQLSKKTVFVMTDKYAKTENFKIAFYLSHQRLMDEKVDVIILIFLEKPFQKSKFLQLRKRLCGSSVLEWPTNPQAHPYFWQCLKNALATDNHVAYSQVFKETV
Assay Protocol: TLR7 inhibition reporter assay (HEK-Blue cells, SEAP reporter, gardiquimod stimulation)
Condition Summary: HEK-Blue cells overexpressing human TLR7, SEAP reporter, gardiquimod 7.5 μM
pIC50 by entry:
// field semantics: pIC50 = negative decimal log of concentration (mol/L)

Compound	Recorded Result
CC(C)c1c(C(=O)NC2CCN(C(C)C)CC2)n[nH]c1-c1ccc(C#N)c2ncccc12 [Example 40]	7.52
Cc1cc(-c2[nH]nc(-c3ccc(N(C)C)cc3)c2C(C)C)cn2ncnc12 [Example 243]	7.79
CNC(=O)CN1CCc2cc(-c3n[nH]c(-c4cc(C)c5ncnn5c4)c3C(C)C)ccc2C1 [Example 273]	7.86
Cc1cc(-c2[nH]nc(-c3ncc(C4CCN(C(C)C(C)C)CC4)cn3)c2C(C)C)cn2ncnc12 (stereo not shown) [Example 372]	7.97
Cc1cc(-c2[nH]nc(-c3ccc(C4CCNCC4)nc3)c2C(C)C)cn2ncnc12 [Example 340]	8.33

Next up:
Q. # get_value(readout='pIC50', item= Cc1cc(-c2[nH]nc(-c3nc4c(s3)CN(C(=O)CN(C)C)CC4)c2C(C)C)cn2ncnc12 [Example 270] )
A. 8.05

----------
log10 of IC50 by entry:
Target Desc: human TLR8 (Homo sapiens, UniProt Q9NR97)
Sequence (Q9NR97 27-1041): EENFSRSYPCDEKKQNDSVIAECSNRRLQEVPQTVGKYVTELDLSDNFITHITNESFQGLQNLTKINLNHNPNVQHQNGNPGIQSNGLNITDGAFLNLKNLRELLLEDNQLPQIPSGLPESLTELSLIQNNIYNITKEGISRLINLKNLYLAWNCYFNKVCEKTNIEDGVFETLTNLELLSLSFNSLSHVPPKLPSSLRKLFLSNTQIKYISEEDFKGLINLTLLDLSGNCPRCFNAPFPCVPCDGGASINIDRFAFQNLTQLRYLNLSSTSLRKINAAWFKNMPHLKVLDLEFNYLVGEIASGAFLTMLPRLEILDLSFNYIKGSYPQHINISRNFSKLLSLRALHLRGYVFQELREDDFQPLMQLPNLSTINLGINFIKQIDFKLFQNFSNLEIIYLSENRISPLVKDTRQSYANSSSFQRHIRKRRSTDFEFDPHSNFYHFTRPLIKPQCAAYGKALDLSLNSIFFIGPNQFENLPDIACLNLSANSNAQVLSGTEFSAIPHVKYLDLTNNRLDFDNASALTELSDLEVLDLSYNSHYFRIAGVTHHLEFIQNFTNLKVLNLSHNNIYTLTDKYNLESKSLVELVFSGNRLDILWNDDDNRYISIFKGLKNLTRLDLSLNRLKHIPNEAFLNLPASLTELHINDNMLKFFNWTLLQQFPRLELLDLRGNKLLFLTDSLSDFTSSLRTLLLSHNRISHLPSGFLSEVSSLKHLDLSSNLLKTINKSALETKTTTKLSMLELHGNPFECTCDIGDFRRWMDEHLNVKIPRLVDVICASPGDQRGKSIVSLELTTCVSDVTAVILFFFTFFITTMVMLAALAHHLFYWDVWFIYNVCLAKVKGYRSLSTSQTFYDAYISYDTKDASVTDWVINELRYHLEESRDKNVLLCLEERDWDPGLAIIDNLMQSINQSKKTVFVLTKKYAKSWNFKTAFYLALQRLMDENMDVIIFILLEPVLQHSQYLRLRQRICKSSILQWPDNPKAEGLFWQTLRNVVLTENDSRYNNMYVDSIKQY
Assay Protocol: TLR8 inhibition reporter assay (HEK-Blue cells, SEAP reporter, R848 stimulation)
Condition Summary: HEK-Blue cells overexpressing human TLR8, SEAP reporter, R848 15.9 μM
Parameter value (number): base-10 log of IC50 in nM.

// worked examples, log10 of IC50 included
Compound	Target Desc	log10 of IC50
COc1cc(-c2[nH]nc(-c3ccc(C4CCN(CC(F)(F)F)CC4)cc3)c2C(C)C)cn2ncnc12	human TLR8 (Homo sapiens, UniProt Q9NR97)	0.11
Cc1cc(-c2[nH]nc(C(=O)N[C@H]3CC[C@@H](NCC4CCOCC4)CC3)c2C(C)C)cn2ncnc12	human TLR8 (Homo sapiens, UniProt Q9NR97)	0.37
Cc1cc(-c2[nH]nc(C3CCC(N4CCN(C)CC4)CC3)c2C(C)C)cn2ncnc12 (single isomer, unassigned) [Example 286]	human TLR8 (Homo sapiens, UniProt Q9NR97)	1.16
CC(C)c1c(C(=O)NC2CCN(C(C)C)CC2)n[nH]c1-c1ccc(C#N)c2ncccc12	human TLR8 (Homo sapiens, UniProt Q9NR97)	1.49
Cc1cc(-c2[nH]nc(C3CCC(N(C)CC(=O)N(C)C)CC3)c2C(C)C)cn2ncnc12 (single isomer, unassigned) [compound 299]	human TLR8 (Homo sapiens, UniProt Q9NR97)	-0.14
Cc1cc(-c2[nH]nc(C(=O)N[C@H]3CC[C@@H](NC(C)C)CC3)c2C(C)C)cn2ncnc12	human TLR8 (Homo sapiens, UniProt Q9NR97)	1.24
Cc1cc(-c2[nH]nc(C(=O)NC3CCC(NC4(C)COC4)CC3)c2C(C)C)cn2ncnc12 (stereo not drawn) [Example 124]	human TLR8 (Homo sapiens, UniProt Q9NR97)	1.50
Cc1cc(-c2[nH]nc(C(=O)N3CCC(CN)CC3)c2C(C)C)cn2ncnc12	human TLR8 (Homo sapiens, UniProt Q9NR97)	0.73

Q. Recall the recorded log10 of IC50 for `Cc1cc(-c2[nH]nc(-c3ncc(C4CCN(C(C)C)CC4)cn3)c2C(C)C)cn2ncnc12` with human TLR8 (Homo sapiens, UniProt Q9NR97) and state it.
A. 0.14

Q. Recall the recorded log10 of IC50 for CNC1CCC(c2n[nH]c(-c3cc(C)c4ncnn4c3)c2C(C)C)CC1 (single isomer, unassigned) [Example 294] with human TLR8 (Homo sapiens, UniProt Q9NR97) and state it.
A. -0.38

Q. Recall the recorded log10 of IC50 for `Cc1cc(-c2[nH]nc(-c3ccc(NC(C)C)cc3)c2C(C)C)cn2ncnc12` with human TLR8 (Homo sapiens, UniProt Q9NR97) and state it.
A. 1.24

Q. Recall the recorded log10 of IC50 for `Cc1cc(-c2[nH]nc(C(=O)NC3CCN(CCC(C)(C)C)CC3)c2C(C)C)cn2ncnc12` with human TLR8 (Homo sapiens, UniProt Q9NR97) and state it.
A. 0.88

Q. Recall the recorded log10 of IC50 for `COc1cc(-c2[nH]nc(-c3cnc(C4CCN(CC(C)C)CC4)cn3)c2C(C)C)cn2ncnc12` with human TLR8 (Homo sapiens, UniProt Q9NR97) and state it.
A. 1.36

Q. Recall the recorded log10 of IC50 for Cc1cc(-c2[nH]nc(C3CCC(NCC(F)F)CC3)c2C(C)C)cn2ncnc12 (single isomer, unassigned) with human TLR8 (Homo sapiens, UniProt Q9NR97) and state it.
A. 0.03

Q. Recall the recorded log10 of IC50 for `Cc1cc(-c2[nH]nc(C(=O)NC3CCN(C(C)C)CC3)c2CC(F)(F)F)cn2ncnc12` with human TLR8 (Homo sapiens, UniProt Q9NR97) and state it.
A. 0.65

Q. Recall the recorded log10 of IC50 for CCN1CC(C(=O)N(C)C2CCC(c3n[nH]c(-c4cc(C)c5ncnn5c4)c3C(C)C)CC2)C1 (single isomer, unassigned) [Example 305] with human TLR8 (Homo sapiens, UniProt Q9NR97) and state it.
A. 1.85

Q. Recall the recorded log10 of IC50 for `Cc1cc(-c2[nH]nc(-c3ccc(C4CCNCC4)nn3)c2C(C)C)cn2ncnc12` with human TLR8 (Homo sapiens, UniProt Q9NR97) and state it.
A. 1.10

Q. Recall the recorded log10 of IC50 for `Cc1cc(-c2cc(C(=O)NC3CCN(C(C)C)CC3)n[nH]2)cn2ncnc12` with human TLR8 (Homo sapiens, UniProt Q9NR97) and state it.
A. 0.39

Q. Recall the recorded log10 of IC50 for `Cc1cc(-c2[nH]nc(C(=O)N[C@H]3CCCN(C4COC4)C3)c2C(C)C)cn2ncnc12` with human TLR8 (Homo sapiens, UniProt Q9NR97) and state it.
A. -0.06

Q. Recall the recorded log10 of IC50 for `Cc1cc(-c2[nH]nc(C(=O)N[C@H]3CCCN(C(C)C)C3)c2C(C)C)cn2ncnc12` with human TLR8 (Homo sapiens, UniProt Q9NR97) and state it.
A. 1.31

Q. Recall the recorded log10 of IC50 for `Cc1cc(-c2[nH]nc(-c3ccc(N)cc3)c2C(C)C)cn2ncnc12` with human TLR8 (Homo sapiens, UniProt Q9NR97) and state it.
A. -0.23

Q. Recall the recorded log10 of IC50 for `Cc1cc(-c2[nH]nc(C(=O)NC3CCN(C4CCOCC4)CC3)c2C(C)C)cn2ncnc12` with human TLR8 (Homo sapiens, UniProt Q9NR97) and state it.
A. 0.82

Q. Recall the recorded log10 of IC50 for Cc1cc(-c2[nH]nc(C3CCC(N(C)C(=O)C4CNC4)CC3)c2C(C)C)cn2ncnc12 (stereo not drawn) with human TLR8 (Homo sapiens, UniProt Q9NR97) and state it.
A. 0.18

Q. Recall the recorded log10 of IC50 for `Cc1cc(-c2[nH]nc(C(=O)N[C@H]3CC[C@H](NCC4CCCC4)CC3)c2C(C)C)cn2ncnc12` with human TLR8 (Homo sapiens, UniProt Q9NR97) and state it.
A. 1.45

Q. Recall the recorded log10 of IC50 for Cc1cc(-c2[nH]nc(C(=O)NCC3CN(C4COC4)CCO3)c2C(C)C)cn2ncnc12 (stereo not drawn) [Example 136] with human TLR8 (Homo sapiens, UniProt Q9NR97) and state it.
A. 0.64

Q. Recall the recorded log10 of IC50 for Cc1cc(-c2[nH]nc(C3CCC(N(C)C(=O)C4CN(C)C4)CC3)c2C(C)C)cn2ncnc12 (single isomer, unassigned) [Example 302] with human TLR8 (Homo sapiens, UniProt Q9NR97) and state it.
A. 1.15

Q. Recall the recorded log10 of IC50 for `Cc1cc(-c2[nH]nc(-c3ncc4c(n3)CCNC4)c2C(C)C)cn2ncnc12` with human TLR8 (Homo sapiens, UniProt Q9NR97) and state it.
A. 0.29

Q. Recall the recorded log10 of IC50 for `Cc1cc(-c2[nH]nc(-c3ccc4c(c3)CCN(CC(C)(C)O)C4)c2C(C)C)cn2ncnc12` with human TLR8 (Homo sapiens, UniProt Q9NR97) and state it.
A. 1.36

Q. Recall the recorded log10 of IC50 for COCCN(C)C1CCC(NC(=O)c2n[nH]c(-c3cc(C)c4ncnn4c3)c2C(C)C)CC1 (stereo not drawn) with human TLR8 (Homo sapiens, UniProt Q9NR97) and state it.
A. 0.92

Q. Recall the recorded log10 of IC50 for `Cc1cc(-c2[nH]nc(-c3ccc(C4CN(C(=O)CN(C)C)C4)cc3)c2C(C)C)cn2ncnc12` with human TLR8 (Homo sapiens, UniProt Q9NR97) and state it.
A. 0.50
